Please provide measured Soybean response (percent phytotoxicity), Als1 for the entries that follow.
Tested on: soybean having the Als1 mutation
Assay: Greenhouse postemergence test of ALS-inhibiting herbicides, soybean with Als1 mutation
Assay type: in vivo
Conditions: 140 g ai/ha postemergence at V2, scored 14 days after application
// note: answer is a bare numeric in %

## Input Specify Soybean response (percent phytotoxicity), Als1 for CCOc1nc(F)cc2nc(S(=O)(=O)Nc3c(Cl)cccc3C(=O)OC)nn12 and stop.
## Output 0

## Input Specify Soybean response (percent phytotoxicity), Als1 for COc1cc(OC)nc(Sc2cccc(Cl)c2C(=O)O)n1 [Pyrithiobac sodium] and stop.
## Output 70

## Input Specify Soybean response (percent phytotoxicity), Als1 for COc1cc(Cl)nc(NC(=O)NS(=O)(=O)c2ccccc2C(=O)O)n1 and stop.
## Output 0

## Input Specify Soybean response (percent phytotoxicity), Als1 for CCS(=O)(=O)c1cccnc1S(=O)(=O)NC(=O)Nc1nc(OC)cc(OC)n1 and stop.
## Output 80

## Input Specify Soybean response (percent phytotoxicity), Als1 for CCc1cnc(C2=NC(C)(C(C)C)C(=O)N2)c(C(=O)O)c1 (centres unmarked) and stop.
## Output 0

## Input Specify Soybean response (percent phytotoxicity), Als1 for CC(C)C1(C)N=C(c2ncccc2C(=O)O)NC1=O (centres unmarked) and stop.
## Output 98

## Input Specify Soybean response (percent phytotoxicity), Als1 for COc1nn(C(=O)NS(=O)(=O)c2ccccc2OC(F)(F)F)c(=O)n1C and stop.
## Output 10

## Input Specify Soybean response (percent phytotoxicity), Als1 for COc1cc(OC)nc(NC(=O)NS(=O)(=O)c2ncccc2C(=O)N(C)C)n1 and stop.
## Output 5

====

Please provide measured Avg response (% phytotoxicity), Trait Als2 for the entries that follow.
Test system: soybean having the Als2 mutation
Assay: Greenhouse postemergence test of ALS-inhibiting herbicides, soybean with Als2 mutation
Type: in vivo
Conditions: 140 g ai/ha, Table 2
// note: answer is a bare numeric in %

## Input Specify Avg response (% phytotoxicity), Trait Als2 for COc1cc(OC)nc(Sc2cccc(Cl)c2C(=O)O)n1 [Pyrithiobac sodium] and stop.
## Output 80

## Input Specify Avg response (% phytotoxicity), Trait Als2 for CCS(=O)(=O)c1cccnc1S(=O)(=O)NC(=O)Nc1nc(OC)cc(OC)n1 and stop.
## Output 80

## Input Specify Avg response (% phytotoxicity), Trait Als2 for COc1cc(OC)nc(NC(=O)NS(=O)(=O)c2ncccc2C(=O)N(C)C)n1 and stop.
## Output 20

## Input Specify Avg response (% phytotoxicity), Trait Als2 for CCc1cnc(C2=NC(C)(C(C)C)C(=O)N2)c(C(=O)O)c1 (stereo not drawn) and stop.
## Output 0

## Input Specify Avg response (% phytotoxicity), Trait Als2 for COc1nn(C(=O)NS(=O)(=O)c2ccccc2OC(F)(F)F)c(=O)n1C and stop.
## Output 55

## Input Specify Avg response (% phytotoxicity), Trait Als2 for CC(C)C1(C)N=C(c2ncccc2C(=O)O)NC1=O (stereo not drawn) and stop.
## Output 55

====

Tested on: soybean having the Als2 mutation
Assay: Greenhouse postemergence test of ALS-inhibiting herbicides, soybean with Als2 mutation
Format: in vivo
Details: 35 g ai/ha, Table 2
Experimental Readout: Avg response (% phytotoxicity), Trait Als2 (%)
// note: answer is a bare numeric in %

## Input Tell me its Avg response (% phytotoxicity), Trait Als2 on soybean having the Als2 mutation: COc1cc(OC)nc(NC(=O)NS(=O)(=O)c2ncccc2C(=O)N(C)C)n1
## Output 0

## Input Tell me its Avg response (% phytotoxicity), Trait Als2 on soybean having the Als2 mutation: CCS(=O)(=O)c1cccnc1S(=O)(=O)NC(=O)Nc1nc(OC)cc(OC)n1
## Output 20

## Input Tell me its Avg response (% phytotoxicity), Trait Als2 on soybean having the Als2 mutation: COc1cc(OC)nc(Sc2cccc(Cl)c2C(=O)O)n1 [Pyrithiobac sodium]
## Output 40

## Input Tell me its Avg response (% phytotoxicity), Trait Als2 on soybean having the Als2 mutation: CC(C)C1(C)N=C(c2ncccc2C(=O)O)NC1=O (centres unmarked)
## Output 25

## Input Tell me its Avg response (% phytotoxicity), Trait Als2 on soybean having the Als2 mutation: Cc1cc(C)nc(NC(=O)NS(=O)(=O)c2ccccc2C(=O)O)n1
## Output 75

## Input Tell me its Avg response (% phytotoxicity), Trait Als2 on soybean having the Als2 mutation: CCc1cnc(C2=NC(C)(C(C)C)C(=O)N2)c(C(=O)O)c1 (centres unmarked)
## Output 0

## Input Tell me its Avg response (% phytotoxicity), Trait Als2 on soybean having the Als2 mutation: COc1nn(C(=O)NS(=O)(=O)c2ccccc2OC(F)(F)F)c(=O)n1C
## Output 30

## Input Tell me its Avg response (% phytotoxicity), Trait Als2 on soybean having the Als2 mutation: COc1nc(C)nc(N(C)C(=O)NS(=O)(=O)c2ccccc2C(=O)O)n1
## Output 60

====

Test system: soybean having both the Als1 and Als2 mutations
Experiment: Greenhouse postemergence test of ALS-inhibiting herbicides and isobole analysis, soybean with Als1 and Als2 mutations
Format: in vivo
Conditions: 35 g ai/ha, Table 2
Experimental Readout: Avg response (% phytotoxicity), Trait Als1 + Als2

## Input Specify Avg response (% phytotoxicity), Trait Als1 + Als2 for COc1cc(OC)nc(NC(=O)NS(=O)(=O)c2ncccc2C(=O)N(C)C)n1 and stop.
## Output 0%

## Input Specify Avg response (% phytotoxicity), Trait Als1 + Als2 for Cc1cc(C)nc(NC(=O)NS(=O)(=O)c2ccccc2C(=O)O)n1 and stop.
## Output 10%

## Input Specify Avg response (% phytotoxicity), Trait Als1 + Als2 for COc1nn(C(=O)NS(=O)(=O)c2ccccc2OC(F)(F)F)c(=O)n1C and stop.
## Output 0%

## Input Specify Avg response (% phytotoxicity), Trait Als1 + Als2 for COc1cc(OC)nc(Sc2cccc(Cl)c2C(=O)O)n1 [Pyrithiobac sodium] and stop.
## Output 0%

## Input Specify Avg response (% phytotoxicity), Trait Als1 + Als2 for CCc1cnc(C2=NC(C)(C(C)C)C(=O)N2)c(C(=O)O)c1 (centres unmarked) and stop.
## Output 0%

====

Please provide measured Soybean response (percent phytotoxicity), Als1 + Als2 for the entries that follow.
Test system: soybean having both the Als1 and Als2 mutations
Test: Greenhouse postemergence test of ALS-inhibiting herbicides and isobole analysis, soybean with Als1 and Als2 mutations
Format: in vivo
Details: 140 g ai/ha postemergence at V2, scored 14 days after application
// note: answer is a bare numeric in %

## Input Specify Soybean response (percent phytotoxicity), Als1 + Als2 for CCS(=O)(=O)c1cccnc1S(=O)(=O)NC(=O)Nc1nc(OC)cc(OC)n1 and stop.
## Output 10

## Input Specify Soybean response (percent phytotoxicity), Als1 + Als2 for COc1cc(Cl)nc(NC(=O)NS(=O)(=O)c2ccccc2C(=O)O)n1 and stop.
## Output 0

## Input Specify Soybean response (percent phytotoxicity), Als1 + Als2 for COc1cc(OC)nc(NC(=O)NS(=O)(=O)c2ncccc2C(=O)N(C)C)n1 and stop.
## Output 0

## Input Specify Soybean response (percent phytotoxicity), Als1 + Als2 for CC(C)C1(C)N=C(c2ncccc2C(=O)O)NC1=O (centres unmarked) and stop.
## Output 55

## Input Specify Soybean response (percent phytotoxicity), Als1 + Als2 for COc1cc(OC)nc(Sc2cccc(Cl)c2C(=O)O)n1 [Pyrithiobac sodium] and stop.
## Output 25

## Input Specify Soybean response (percent phytotoxicity), Als1 + Als2 for CCOc1nc(F)cc2nc(S(=O)(=O)Nc3c(Cl)cccc3C(=O)OC)nn12 and stop.
## Output 0

## Input Specify Soybean response (percent phytotoxicity), Als1 + Als2 for COc1nn(C(=O)NS(=O)(=O)c2ccccc2OC(F)(F)F)c(=O)n1C and stop.
## Output 0

## Input Specify Soybean response (percent phytotoxicity), Als1 + Als2 for CCc1cnc(C2=NC(C)(C(C)C)C(=O)N2)c(C(=O)O)c1 (centres unmarked) and stop.
## Output 0

====

Test system: soybean having the Als2 mutation
Experiment: Greenhouse postemergence test of ALS-inhibiting herbicides, soybean with Als2 mutation
Assay type: in vivo
Details: 8.75 g ai/ha postemergence at V2, scored 14 days after application
Experimental Readout: Soybean response (percent phytotoxicity), Als2 (%)
// note: answer is a bare numeric in %

## Input Specify Soybean response (percent phytotoxicity), Als2 for CC(C)C1(C)N=C(c2ncccc2C(=O)O)NC1=O (stereo not shown) and stop.
## Output 5

## Input Specify Soybean response (percent phytotoxicity), Als2 for COc1nc(C)nc(NC(=O)NS(=O)(=O)c2ccsc2C(=O)O)n1 and stop.
## Output 0

## Input Specify Soybean response (percent phytotoxicity), Als2 for CCS(=O)(=O)c1cccnc1S(=O)(=O)NC(=O)Nc1nc(OC)cc(OC)n1 and stop.
## Output 0

## Input Specify Soybean response (percent phytotoxicity), Als2 for COc1cc(Cl)nc(NC(=O)NS(=O)(=O)c2ccccc2C(=O)O)n1 and stop.
## Output 0

## Input Specify Soybean response (percent phytotoxicity), Als2 for CCOc1nc(F)cc2nc(S(=O)(=O)Nc3c(Cl)cccc3C(=O)OC)nn12 and stop.
## Output 0

## Input Specify Soybean response (percent phytotoxicity), Als2 for Cc1cc(C)nc(NC(=O)NS(=O)(=O)c2ccccc2C(=O)O)n1 and stop.
## Output 40

## Input Specify Soybean response (percent phytotoxicity), Als2 for COc1nc(C)nc(N(C)C(=O)NS(=O)(=O)c2ccccc2C(=O)O)n1 and stop.
## Output 15

Source: patent US20130254944A1
